The measured values listed here are drawn from ChEMBL document CHEMBL1143126.

- System: DNA
- Experiment: Ratio of Qmax for calf thymus DNA to Q50 for calf thymus DNA
- Format: nucleic-acid assay
- Conditions: Bos taurus
Test Readout: Ratio

Reference set, count: 4
Given item `Nc1cc(CO)cc(Nc2c3ccccc3nc3ccccc23)c1` , the value recorded as its Ratio is 6.49

Given item `CSc1nc2c(Nc3ccc(C#N)cc3)c3ccccc3nc2s1` , the value recorded as its Ratio is 0.9

Given item `CSc1nc2c(Nc3cccc(Cl)c3)c3ccccc3nc2s1` , the value recorded as its Ratio is 2

Given item `CSc1nc2c(Nc3cccc(NC(C)=O)c3)c3ccccc3nc2s1` , the value recorded as its Ratio is 0.82

P = CCN(CC)CCNc1nc2c(Nc3ccccc3)c3ccccc3nc2s1
Q = CNc1cccc(Nc2c3ccccc3nc3sc(SC)nc23)c1
Determine, for P and Q , which has the greater value of Ratio. Use the label to indicate which entry you chose. Q

* * *

- Tested on: DNA
- Experiment: Displacement of ethidium bromide from calf thymus DNA
- Assay type: nucleic-acid assay
- Conditions: Bos taurus
Test Readout: Q50 (µM)

Given item `COc1cccc(Nc2c3ccccc3nc3sc(SC)nc23)c1` , the value recorded as its Q50 is 3.71

1 = CCN(CC)CCNc1nc2c(Nc3ccccc3)c3ccccc3nc2s1
2 = CSc1nc2c(Nc3ccccc3)c3ccccc3nc2s1
Determine, for 1 and 2 , which has the greater value of Q50. Use the label to indicate which entry you chose. 1
(1: 52.5 µM, 2: 13.6 µM)

* * *

Here the recorded IC50 is given for each entry.
- Experiment: Antiproliferative activity against human C33 cells after 72 hrs by MTT assay
- Type: functional, cell-based
- Conditions: C33, 72 h
Give just the numeric value; µM need not be written.

Reference set, count: 2
Given item `CSc1nc2c(Nc3cccc(N)c3)c3ccccc3nc2s1` , the value recorded as its IC50 is 139

Given item `COc1cc(NS(C)(=O)=O)ccc1Nc1c2ccccc2nc2ccccc12` , the value recorded as its IC50 is 8.8

Others:
Given item `CCN(CC)CCNc1c2ccccc2nc2sc(SC)nc12` , the value recorded as its IC50 is 9.06

Given item `CSc1nc2c(Nc3ccccc3)c3ccccc3nc2s1` , the value recorded as its IC50 is 154

Given item `CCN(CC)CCNc1nc2c(Cl)c3ccccc3nc2s1` , the value recorded as its IC50 is 9.35

Given item `CSc1nc2c(Nc3cccc(Cl)c3)c3ccccc3nc2s1` , the value recorded as its IC50 is 129

Given item `CSc1nc2c(Nc3cccc(C#N)c3)c3ccccc3nc2s1` , the value recorded as its IC50 is 15.1

Given item `CSc1nc2c(Nc3cccc(O)c3)c3ccccc3nc2s1` , the value recorded as its IC50 is 146

Given item `COc1cccc(Nc2c3ccccc3nc3sc(SC)nc23)c1` , the value recorded as its IC50 is 75.4

* * *

- Tested on: DNA
- Experiment: Displacement of ethidium bromide from calf thymus DNA
- Type: nucleic-acid assay
- Conditions: Bos taurus
Test Readout: Q50 (µM)

Given item `CSc1nc2c(Nc3ccc(C#N)cc3)c3ccccc3nc2s1` , the value recorded as its Q50 is 14.3

Given item `CCN(CC)CCNc1nc2c(Cl)c3ccccc3nc2s1` , the value recorded as its Q50 is 11.1

Given item `Nc1cc(CO)cc(Nc2c3ccccc3nc3ccccc23)c1` , the value recorded as its Q50 is 7.36

Given item `CCN(CC)CCNC(=O)c1cccc(Nc2c3ccccc3nc3sc(SC)nc23)c1` , the value recorded as its Q50 is 16.6

I = CSc1nc2c(Nc3cccc(NC(C)=O)c3)c3ccccc3nc2s1
II = CSc1nc2c(Nc3cccc(C(F)(F)F)c3)c3ccccc3nc2s1
Determine, for I and II , which has the greater value of Q50. Use the label to indicate which entry you chose. I

* * *

- Tested on: HeLa
- Experiment: Antiproliferative activity against human HeLa cells after 72 hrs by MTT assay
- Assay type: functional, cell-based
Test Readout: IC50 (µM)

Reference set, count: 5
Given item `CCN(CC)CCNc1c2ccccc2nc2sc(SC)nc12` , the value recorded as its IC50 is 13

Given item `COc1cccc(Nc2c3ccccc3nc3sc(SC)nc23)c1` , the value recorded as its IC50 is 25.3

Given item `CSc1nc2c(Nc3cccc(C#N)c3)c3ccccc3nc2s1` , the value recorded as its IC50 is 7.75

Given item `CSc1nc2c(Nc3ccc(Cl)cc3)c3ccccc3nc2s1` , the value recorded as its IC50 is 124

Given item `CSc1nc2c(Nc3ccc(C#N)cc3)c3ccccc3nc2s1` , the value recorded as its IC50 is 140

P = CCN(CC)CCNC(=O)c1cccc(Nc2c3ccccc3nc3sc(SC)nc23)c1
Q = CSc1nc2c(Nc3cccc(N)c3)c3ccccc3nc2s1
Determine, for P and Q , which has the greater value of IC50. Use the label to indicate which entry you chose. Q

1 = CSc1nc2c(Nc3cccc([N+](=O)[O-])c3)c3ccccc3nc2s1
2 = CCN(CC)CCNc1nc2c(Cl)c3ccccc3nc2s1
Decide: 1 or 2 , by lowest recorded IC50. Use the label to indicate which entry you chose. 2

* * *

- Tested on: DNA
- Experiment: Ratio of Qmax for calf thymus DNA to Q50 for calf thymus DNA
- Assay type: nucleic-acid assay
- Conditions: Bos taurus
Test Readout: Ratio

Reference set, count: 8
Given item `CSc1nc2c(Nc3cccc(N)c3)c3ccccc3nc2s1` , the value recorded as its Ratio is 1.17

Given item `COc1ccc(Nc2c3ccccc3nc3sc(SC)nc23)cc1` , the value recorded as its Ratio is 0.39

Given item `CSc1nc2c(Nc3cccc(O)c3)c3ccccc3nc2s1` , the value recorded as its Ratio is 2.15

Given item `CSc1nc2c(Nc3cccc(C#N)c3)c3ccccc3nc2s1` , the value recorded as its Ratio is 0.68

Given item `COc1cccc(Nc2c3ccccc3nc3sc(SC)nc23)c1` , the value recorded as its Ratio is 1.79

Given item `CCN(CC)CCNc1nc2c(Cl)c3ccccc3nc2s1` , the value recorded as its Ratio is 2.36

Given item `CCN(CC)CCNC(=O)c1cccc(Nc2c3ccccc3nc3sc(SC)nc23)c1` , the value recorded as its Ratio is 1.39

Given item `CSc1nc2c(Nc3ccc(Cl)cc3)c3ccccc3nc2s1` , the value recorded as its Ratio is 0.84

1 = CCN(CC)CCNc1c2ccccc2nc2sc(SC)nc12
2 = CSc1nc2c(Nc3ccccc3)c3ccccc3nc2s1
Determine, for 1 and 2 , which has the greater value of Ratio. Use the label to indicate which entry you chose. 1
(1: 4.87, 2: 0.31)

a = CSc1nc2c(Nc3cccc(C(F)(F)F)c3)c3ccccc3nc2s1
b = CSc1nc2c(Nc3cc(N)cc(CO)c3)c3ccccc3nc2s1
Determine, for a and b , which has the greater value of Ratio. Use the label to indicate which entry you chose. a
(a: 3.08, b: 0.79)

* * *

- Experiment: Antiproliferative activity against human C33 cells after 72 hrs by MTT assay
- Assay type: functional, cell-based
- Conditions: C33, 72 h
Here the recorded IC50 is given for each entry.
Give just the numeric value; µM need not be written.

Reference set, count: 3
Given item `CSc1nc2c(Nc3cccc(C(F)(F)F)c3)c3ccccc3nc2s1` , the value recorded as its IC50 is 59.7

Given item `CCN(CC)CCNC(=O)c1cccc(Nc2c3ccccc3nc3sc(SC)nc23)c1` , the value recorded as its IC50 is 19.9

Given item `CNc1cccc(Nc2c3ccccc3nc3sc(SC)nc23)c1` , the value recorded as its IC50 is 134

Now take the following molecule into account.
Given item `CCN(CC)CCNc1nc2c(Nc3ccccc3)c3ccccc3nc2s1` , the value recorded as its IC50 is 22.4

* * *

- System: DNA
- Experiment: Displacement of ethidium bromide from calf thymus DNA
- Format: nucleic-acid assay
- Conditions: Bos taurus
Test Readout: Q50 (µM)

Given item `CCN(CC)CCNc1c2ccccc2nc2sc(SC)nc12` , the value recorded as its Q50 is 9.44

Given item `CSc1nc2c(Nc3cc(N)cc(CO)c3)c3ccccc3nc2s1` , the value recorded as its Q50 is 22.6

Given item `CSc1nc2c(Nc3cccc(N)c3)c3ccccc3nc2s1` , the value recorded as its Q50 is 6.96

A = CSc1nc2c(Nc3ccc(Cl)cc3)c3ccccc3nc2s1
B = COc1ccc(Nc2c3ccccc3nc3sc(SC)nc23)cc1
C = CSc1nc2c(Nc3cccc(Cl)c3)c3ccccc3nc2s1
Put the items in order so that reported Q50 rises from first to last. Please write the labels in the order that was asked for. C, A, B

* * *

- Experiment: Antiproliferative activity against human C33 cells after 72 hrs by MTT assay
- Format: functional, cell-based
- Conditions: C33, 72 h
Test Readout: IC50

Reference set, count: 2
Given item `CSc1nc2c(Nc3cc(N)cc(CO)c3)c3ccccc3nc2s1` , the value recorded as its IC50 is > 200 µM

Given item `CSc1nc2c(Nc3ccc(Cl)cc3)c3ccccc3nc2s1` , the value recorded as its IC50 is > 200 µM

Others:
Given item `COc1ccc(Nc2c3ccccc3nc3sc(SC)nc23)cc1` , the value recorded as its IC50 is > 200 µM
